In this section, each of the molecules is paired with its reported IC50.
- Tested on: human lung cancer strain NCI-H441
- Assay type: cell-based
Write the numeric value and append its unit.

Req: # lookup: IC50 of CCO[C@@H]1C[C@H]2C(=O)NC3(CC(C)(C)C3)C(=O)N(C)[C@@H](C3CCCC3)C(=O)N(C)[C@H](C(=O)N(C)CC)CC(=O)N(C)[C@@H](COC)C(=O)N[C@@H]([C@@H](C)CC)C(=O)N(C)CC(=O)N(C)[C@H]3C/C=C\CCN(C3=O)[C@@H](Cc3ccc(C(F)(F)F)cc3)C(=O)N(C)CC(=O)N[C@@H](CCc3cc(F)c(C(F)(F)F)c(F)c3)C(=O)N2C1
Resp: 0.003 µM

Req: # lookup: IC50 of CCO[C@@H]1C[C@H]2C(=O)NC3(CCC3)C(=O)N(C)[C@@H](C3CCCC3)C(=O)N(C)[C@H](C(=O)N(C)C)CC(=O)N(C)[C@@H](Cc3ccc(Cl)cc3)C(=O)N[C@@H]([C@@H](C)CC)C(=O)N(C)CC(=O)N(C)[C@H]3CCCCCN(C3=O)[C@@H](Cc3ccc(C(F)(F)F)cc3)C(=O)N(C)CC(=O)N[C@@H](CCc3cc(F)c(C(F)(F)F)c(F)c3)C(=O)N2C1
Resp: 0.11 µM

---

- Tested on: human lung cancer strain NCI-H441
- Procedure summary: NCI-H441 cell proliferation inhibitory activity (CellTiter-Glo, 4 days)
- Type: cell-based
- Measurement setup: NCI-H441 cells, 4 days, read-out: NCl-H441 IC50
Range-based classes on measured IC50: label 0: < 0.01 µM; label 1: ≥ 0.01 µM and < 0.06 µM; label 2: ≥ 0.06 µM

[
  {
    "Smiles code": "CCO[C@@H]1C[C@H]2C(=O)NC3(CC(C)(C)C3)C(=O)N(C)[C@@H](C3CCCC3)C(=O)N(C)[C@H](C(=O)N(C)CC)CC(=O)N(C)[C@@H]([C@H](C)OC)C(=O)N[C@@H]([C@@H](C)CC)C(=O)N(C)CC(=O)N(C)[C@H]3C/C=C\\CCN(C3=O)[C@@H](Cc3ccc(C)cc3)C(=O)N(C)CC(=O)N[C@@H](CCc3ccc(C(F)(F)F)c(OC)c3)C(=O)N2C1",
    "Class label": "label 1"
  },
  {
    "Smiles code": "CCC[C@H]1C(=O)N[C@@H](C2CCCC2)C(=O)N(C)CC(=O)N(C)[C@H]2C/C=C\\CCN(C2=O)[C@@H](Cc2ccc(C)cc2)C(=O)N(C)CC(=O)N[C@@H](CCc2ccc(C(F)(F)F)c(Cl)c2)C(=O)N2CC3(CC3)C[C@H]2C(=O)N(C)C2(CCC2)C(=O)N(C)[C@@H](CC(C)(C)C)C(=O)N(C)[C@H](C(=O)N(C)C)CC(=O)N1C",
    "Class label": "label 0"
  }
]

Req: Kindly identify the class of CCOC[C@H]1C(=O)N[C@@H]([C@@H](C)CC)C(=O)N(C)CC(=O)N(C)[C@H]2C/C=C\CCN(C2=O)[C@@H](CC2CCC(F)(F)CC2)C(=O)N(C)CC(=O)N[C@@H](CCc2ccc(C(F)(F)F)c(Cl)c2)C(=O)N2C[C@@H](C)C[C@H]2C(=O)NC2(CC(C)(C)C2)C(=O)N(C)[C@@H](C(CC)CC)C(=O)N(C)[C@H](C(=O)N(C)C)CC(=O)N1C .
Resp: label 2

Req: Kindly identify the class of CCC(CC)[C@H]1C(=O)N(C)[C@H](C(=O)N(C)C)CC(=O)N(C)[C@@H](COC)C(=O)N[C@@H]([C@@H](C)CC)C(=O)N(C)CC(=O)N(C)[C@H]2C/C=C\CCN(C2=O)[C@@H](CC2CCC(F)(F)CC2)C(=O)N(C)CC(=O)N[C@@H](CCc2ccc(C(F)(F)F)c(Cl)c2)C(=O)N2C[C@@H](C)C[C@H]2C(=O)NC2(CC(C)(C)C2)C(=O)N1C .
Resp: label 2

Req: Kindly identify the class of CC[C@H](C)[C@@H]1NC(=O)[C@H](COC)N(C)C(=O)C[C@@H](C(=O)N(C)CC)N(C)C(=O)[C@H](C2CCCC2)N(C)C(=O)C2(CC(C)(C)C2)NC(=O)[C@@H]2C[C@H](C)CN2C(=O)[C@H](CCc2ccc(C(F)(F)F)c(Cl)c2)NC(=O)CN(C)C(=O)[C@H](Cc2ccc(C)cc2)N2CC/C=C\C[C@@H](C2=O)N(C)C(=O)CN(C)C1=O .
Resp: label 1

Req: Kindly identify the class of CCC(CC)[C@H]1C(=O)N(C)[C@H](C(=O)N(C)C)CC(=O)N(C)[C@@H](CC2CC2)C(=O)N[C@@H]([C@@H](C)CC)C(=O)N(C)CC(=O)N(C)[C@H]2C/C=C\CCN(C2=O)[C@@H](CC2CCC(F)(F)CC2)C(=O)N(C)CC(=O)N[C@@H](CCc2ccc(C(F)(F)F)c(OC)c2)C(=O)N2C[C@@H](C)C[C@H]2C(=O)NC2(CC(C)(C)C2)C(=O)N1C .
Resp: label 1
